molecular target: STAT6 (Homo sapiens, UniProt P42226); construct: These cells express endogenous STAT6; host or cells: HeLa LgBiT clone 4.14 (CRISPR knock-in of HiBiT into the endogenous STAT6 gene); test: STAT6 Degrader Assay (HiBiT based, HeLa LgBiT clone 4.14 cells); format: cell-based; settings: geometric mean across assay runs and compound batches; DC50 provided for test compounds with >80% Emax; read-out: STAT6 degradation DC50
Sequence (P42226 whole entry): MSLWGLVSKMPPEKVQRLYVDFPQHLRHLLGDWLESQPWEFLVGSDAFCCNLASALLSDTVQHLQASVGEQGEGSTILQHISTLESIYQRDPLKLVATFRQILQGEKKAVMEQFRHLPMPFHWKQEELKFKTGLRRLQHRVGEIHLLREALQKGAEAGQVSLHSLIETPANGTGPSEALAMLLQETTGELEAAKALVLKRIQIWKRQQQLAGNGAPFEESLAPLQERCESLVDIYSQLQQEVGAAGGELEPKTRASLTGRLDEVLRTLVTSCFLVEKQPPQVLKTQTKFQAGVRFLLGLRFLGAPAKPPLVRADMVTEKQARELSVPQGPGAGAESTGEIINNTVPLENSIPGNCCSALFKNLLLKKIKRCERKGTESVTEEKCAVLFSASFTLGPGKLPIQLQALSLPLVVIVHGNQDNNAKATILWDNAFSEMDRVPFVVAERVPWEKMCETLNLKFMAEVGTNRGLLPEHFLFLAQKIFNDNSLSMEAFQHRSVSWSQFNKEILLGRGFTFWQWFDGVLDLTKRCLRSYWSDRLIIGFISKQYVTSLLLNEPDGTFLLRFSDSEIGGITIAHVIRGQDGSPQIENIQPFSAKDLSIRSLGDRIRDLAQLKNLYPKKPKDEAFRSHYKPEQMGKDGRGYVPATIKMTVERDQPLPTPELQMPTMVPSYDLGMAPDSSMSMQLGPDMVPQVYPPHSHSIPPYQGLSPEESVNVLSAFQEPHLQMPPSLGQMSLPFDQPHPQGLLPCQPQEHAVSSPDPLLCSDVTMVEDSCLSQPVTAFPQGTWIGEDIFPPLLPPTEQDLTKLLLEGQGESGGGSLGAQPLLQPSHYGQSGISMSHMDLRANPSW
Recorded Endpoint: log10 of DC50 (log10 of the value in nM)
Note the log scale: values are log10 of DC50 expressed in nM.

Request the reported log10 of DC50 associated with CNc1ccn(-c2ccnc3c2cc([C@H](C)N2CCC(c4c(C)cc(C(=O)N5CCC(CN6CCN(c7ccc(NC8CCC(=O)NC8=O)cc7F)CC6)CC5)cc4F)CC2)n3C)c(=O)c1 (some centres unmarked)
1.20

Request the reported log10 of DC50 associated with CNc1cc(=O)n(-c2ccnc3c2cc(CN2CCC(c4c(F)cc(C(=O)N5CCn6nc(CN7CCC(c8ccc(N[C@@H]9CCC(=O)NC9=O)c(OC)c8)CC7)cc6C5)cc4F)CC2)n3C)cc1F (single isomer, unassigned)
0.40

Request the reported log10 of DC50 associated with CNc1cc(=O)n(-c2ccnc3c2cc([C@H](C)N2CC=C(c4c(C)cc(C(=O)N5CCn6nc(CN7CCC(c8ccc(N[C@@H]9CCC(=O)NC9=O)cc8F)CC7)cc6C5)cc4F)CC2)n3C)cc1F (single isomer, unassigned)
-0.30

Request the reported log10 of DC50 associated with CNc1cc(=O)n(-c2ccnc3c2cc([C@H](C)N2CC=C(c4c(C)cc(C(=O)N5CCC(CN6CCN(c7ccc(NC8CCC(=O)NC8=O)cc7F)C[C@H]6C)CC5)cc4F)CC2)n3C)cc1F (some centres unmarked)
0.62

Request the reported log10 of DC50 associated with CNc1ccn(-c2ccnc3c2cc([C@H](C)N2CC=C(c4c(C)cc(C(=O)N5CCC(CN6CCN(c7ccc(NC8CCC(=O)NC8=O)cc7F)C[C@@H]6C)CC5)cc4F)CC2)n3C)c(=O)c1 (some centres unmarked)
1.32

Request the reported log10 of DC50 associated with CNc1ccn(-c2ccnc3c2cc([C@H](C)N2CC=C(c4c(C)cc(C(=O)N5CCC(CN6CCN(c7ncc(NC8CCC(=O)NC8=O)cc7F)C[C@H]6C)CC5)cc4F)CC2)n3C)c(=O)c1 (some centres unmarked)
0.54

Request the reported log10 of DC50 associated with CNc1cc(=O)n(-c2ccnc3c2cc([C@H](C)N2CC=C(c4c(C)cc(C(=O)N5CCn6nc(CN7CCC(c8ccc(N[C@@H]9CCC(=O)NC9=O)c(OC)c8)CC7)cc6C5)cc4F)CC2)n3C)cc1F (single isomer, unassigned)
-0.15

Request the reported log10 of DC50 associated with C[C@@H](c1cc2c(-n3ccc4c(c3=O)CCN4)ccnc2n1C)N1CCC(c2ccc(C(=O)N3CCN(CC4CCN(c5ccc(NC6CCC(=O)NC6=O)cc5F)CC4)CC3)cc2)CC1 (some centres unmarked)
1.68

Request the reported log10 of DC50 associated with CNc1ccn(-c2ccnc3c2cc(CN2CCC(c4c(F)cc(C(=O)N5CCn6nc(CN7CCC(c8ccc(N[C@@H]9CCC(=O)NC9=O)cc8F)CC7)cc6C5)cc4F)CC2)n3C)c(=O)c1 (single isomer, unassigned)
0.18

Request the reported log10 of DC50 associated with CNc1ccn(-c2ccnc3c2cc([C@H](C)N2CC=C(c4c(C)cc(C(=O)N5CCn6nc(CN7CCC(c8ccc(N[C@H]9CCC(=O)NC9=O)c(OC)c8)CC7)cc6C5)cc4F)CC2)n3C)c(=O)c1 (single isomer, unassigned)
-0.52

Request the reported log10 of DC50 associated with CNc1ccn(-c2ccnc3c2cc([C@H](C)N2CC=C(c4c(C)cc(C(=O)N5CCn6nc(CN7CCC(c8ccc(N[C@H]9CCC(=O)NC9=O)cc8F)CC7)cc6C5)cc4F)CC2)n3C)c(=O)c1 (single isomer, unassigned)
-0.70

Request the reported log10 of DC50 associated with CNc1cc(=O)n(-c2ccnc3c2cc([C@H](C)N2CC=C(c4c(F)cc(C(=O)N5CCC(CN6CCN(c7ccc(N[C@H]8CCC(=O)NC8=O)cc7F)CC6)CC5)cc4F)CC2)n3C)cc1F (single isomer, unassigned)
0.97

Request the reported log10 of DC50 associated with CNc1ccn(-c2ccnc3c2cc([C@H](C)N2CC=C(c4c(C)cc(C(=O)N5CCC(CN6CCN(c7ccc(N[C@H]8CCC(=O)NC8=O)cc7F)C[C@H]6C)CC5)cc4F)CC2)n3C)c(=O)c1 (single isomer, unassigned)
0.38

Request the reported log10 of DC50 associated with CNc1ccn(-c2ccnc3c2cc([C@H](C)N2CC=C(c4c(C)cc(C(=O)N5CCC(CN6CCN(c7ccc(N[C@@H]8CCC(=O)NC8=O)cc7F)C[C@H]6C)CC5)cc4F)CC2)n3C)c(=O)c1 (single isomer, unassigned)
0.52

Request the reported log10 of DC50 associated with Cc1cc(C(=O)N2CCC(CN3CCN(c4ccc(NC5CCC(=O)NC5=O)cc4F)C[C@H]3C)CC2)cc(F)c1C1=CCN([C@@H](C)c2cc3c(-n4ccc5c(c4=O)CCN5)ccnc3n2C)CC1 (some centres unmarked)
0.52

Request the reported log10 of DC50 associated with CNc1ccn(-c2ccnc3c2cc([C@H](C)N2CC=C(c4c(C)cc(C(=O)N5CCC(CN6CCN(c7ccc(N[C@@H]8CCC(=O)NC8=O)cc7F)CC6)CC5)cc4F)CC2)n3C)c(=O)c1 (single isomer, unassigned)
0.38

Request the reported log10 of DC50 associated with COc1cc(C2CCN(Cc3cc4n(n3)CCN(C(=O)c3ccc(C5CCN([C@@H](C)c6cc7c(-n8ccc9c(c8=O)CCN9)ccnc7n6C)CC5)cc3)C4)CC2)ccc1NC1CCC(=O)NC1=O (some centres unmarked)
0.41

---

system: Eotaxin-3 (CCL26) release; test: Human Whole Blood Eotaxin-3 Assay (IL-4 stimulated); format: cell-based; conditions: Homo sapiens; geometric mean across assay runs and compound batches; EC50 provided for test compounds with >80% Emax
pEC50: −log10 of the molar value.
Cut-off 9 on pEC50, inclusive. At or above means 1; below means -1.

Textbook exercise: given the entry CNc1cc(=O)n(-c2ccnc3c2cc([C@H](C)N2CC=C(c4c(C)cc(C(=O)N5CCn6nc(CN7CCC(c8cc(OC)c(NC9CCC(=O)NC9=O)cc8F)CC7)cc6C5)cc4F)CC2)n3C)cc1F (stereo partly drawn) , state whether its pEC50 is greater than or equal to 9.
-1

Textbook exercise: given the entry CNc1ccn(-c2ccnc3c2cc([C@H](C)N2CC=C(c4c(C)cc(C(=O)N5CCn6nc(CN7CCC(c8ccc(NC9CCC(=O)NC9=O)c(OC)c8)CC7)c(Cl)c6C5)cc4F)CC2)n3C)c(=O)c1 (stereo partly drawn) , state whether its pEC50 is greater than or equal to 9.
1

Textbook exercise: given the entry CNc1ccn(-c2ccnc3c2cc([C@H](C)N2CC=C(c4c(C)cc(C(=O)N5CCC(CN6CCN(c7ncc(N[C@@H]8CCC(=O)NC8=O)cc7F)C[C@H]6C)CC5)cc4F)CC2)n3C)c(=O)c1 (single isomer, unassigned) , state whether its pEC50 is greater than or equal to 9.
-1

Textbook exercise: given the entry Cc1cc(C(=O)N2CCn3nc(CN4CCC(c5ccc(NC6CCC(=O)NC6=O)cc5F)CC4)cc3C2)cc(F)c1C1=CCN([C@@H](C)c2cc3c(-n4ccc5c(c4=O)CCN5)ccnc3n2C)CC1 (stereo partly drawn) , state whether its pEC50 is greater than or equal to 9.
1

Textbook exercise: given the entry CNc1ccn(-c2ccnc3c2cc(CN2CCC(c4c(F)cc(C(=O)N5CCn6nc(CN7CCC(c8ccc(NC9CCC(=O)NC9=O)cc8F)CC7)cc6C5)cc4F)CC2)n3C)c(=O)c1 (single isomer, unassigned) [Example 2g101] , state whether its pEC50 is greater than or equal to 9.
1

Textbook exercise: given the entry CNc1ccn(-c2ccnc3c2cc([C@H](C)N2CCC(c4ccc(C(=O)N5CCC(CN6CCN(c7ccc(NC8CCC(=O)NC8=O)cc7F)CC6)CC5)cc4)CC2)n3C)c(=O)c1 (stereo partly drawn) , state whether its pEC50 is greater than or equal to 9.
-1

Textbook exercise: given the entry CNc1ccn(-c2ccnc3c2cc([C@@H](C)N2CC=C(c4c(F)cc(C(=O)N5CCn6nc(CN7CCC(c8ccc(NC9CCC(=O)NC9=O)cc8F)CC7)cc6C5)cc4F)CC2)n3C)c(=O)c1 (stereo partly drawn) , state whether its pEC50 is greater than or equal to 9.
-1

Textbook exercise: given the entry CNc1cc(=O)n(-c2ccnc3c2cc([C@H](C)N2CC=C(c4c(F)cc(C(=O)N5CCC(CN6CCN(c7ccc(N[C@H]8CCC(=O)NC8=O)cc7F)CC6)CC5)cc4F)CC2)n3C)cc1F (single isomer, unassigned) , state whether its pEC50 is greater than or equal to 9.
-1

Textbook exercise: given the entry CNc1ccn(-c2ccnc3c2cc([C@H](C)N2CC=C(c4c(C)cc(C(=O)N5CCC(CN6CCN(c7ncc(N[C@H]8CCC(=O)NC8=O)cc7F)C[C@H]6C)CC5)cc4F)CC2)n3C)c(=O)c1 (single isomer, unassigned) , state whether its pEC50 is greater than or equal to 9.
-1

Textbook exercise: given the entry CNc1ccn(-c2ccnc3c2cc([C@@H](C)N2CCC(c4c(F)cc(C(=O)N5CCn6nc(CN7CCC(c8ccc(NC9CCC(=O)NC9=O)cc8F)CC7)cc6C5)cc4F)CC2)n3C)c(=O)c1 (stereo partly drawn) , state whether its pEC50 is greater than or equal to 9.
-1

Textbook exercise: given the entry CNc1cc(=O)n(-c2ccnc3c2cc([C@H](C)N2CC=C(c4c(F)cc(C(=O)N5CCC(CN6CCN(c7ccc(N[C@@H]8CCC(=O)NC8=O)cc7F)CC6)CC5)cc4F)CC2)n3C)cc1F (single isomer, unassigned) , state whether its pEC50 is greater than or equal to 9.
-1

Textbook exercise: given the entry C[C@@H](c1cc2c(-n3ccc4c(c3=O)CCN4)ccnc2n1C)N1CCC(c2ccc(C(=O)N3CCC(CN4CCN(c5ccc(N[C@H]6CCC(=O)NC6=O)cc5F)CC4)CC3)cc2)CC1 (single isomer, unassigned) , state whether its pEC50 is greater than or equal to 9.
-1

Textbook exercise: given the entry CNc1cc(=O)n(-c2ccnc3c2cc([C@H](C)N2CC=C(c4c(C)cc(C(=O)N5CCn6nc(CN7CCC(c8ccc(NC9CCC(=O)NC9=O)cc8F)CC7)cc6C5)cc4F)CC2)n3C)cc1F (stereo partly drawn) , state whether its pEC50 is greater than or equal to 9.
-1
